Some molecules, each annotated with its measured log10 of EC50.
Target: UniProtKB Q9HBX9
Test: human RXFP1 (hRXFP1) HEK293 cAMP assay (HTRF)
Conditions: HEK293 cells stably expressing human RXFP1, 30 min at room temperature
Readout type: log10 of EC50 (log10 of the value in nM)

# Molecule, log10 of EC50
data = [
    ("COc1cnc(-c2cc(C(=O)O)ccc2F)cc1C(=O)N[C@@H]1C2CCC(/C2=C/C(F)(F)F)[C@@H]1C(=O)Nc1ccc(F)c(C(F)(F)F)c1 (some centres unmarked)", 2.04),
    ("COc1ncc(-c2cc([C@H](OC(=O)N3CCS(=O)(=O)CC3)C(F)(F)F)ccc2F)cc1C(=O)N[C@@H]1C2CCC(/C2=C/C2CC2)[C@@H]1C(=O)Nc1ccc(F)c(C(F)(F)F)c1 (some centres unmarked)", 0.72),
    ("COc1cc2c(cc1C(=O)N[C@H]1[C@@H](C(=O)Nc3ccc(F)c(C(F)(F)F)c3)[C@H]3CC[C@@H]1/C3=C\\C1CC1)CN(S(=O)(=O)CC(C)C)CC2", 2.04),
    ("O=C(N[C@@H]1C2CCC(/C2=C/C(F)(F)F)[C@@H]1C(=O)Nc1ccc(F)c(C(F)(F)F)c1)c1cc(=O)c2ccccc2o1 (some centres unmarked)", 3.58),
    ("COc1ncc(-c2cc([C@H](OC(=O)N3CC4(COC4)C3)C(F)(F)F)ccc2F)cc1C(=O)N[C@@H]1C2CCC(/C2=C/C2CC2)[C@@H]1C(=O)Nc1ccc(F)c(C(F)(F)F)c1 (some centres unmarked)", 0.68),
]

---

Biological target: human RXFP1 (Homo sapiens, UniProt Q9HBX9)
Sequence (Q9HBX9 whole entry): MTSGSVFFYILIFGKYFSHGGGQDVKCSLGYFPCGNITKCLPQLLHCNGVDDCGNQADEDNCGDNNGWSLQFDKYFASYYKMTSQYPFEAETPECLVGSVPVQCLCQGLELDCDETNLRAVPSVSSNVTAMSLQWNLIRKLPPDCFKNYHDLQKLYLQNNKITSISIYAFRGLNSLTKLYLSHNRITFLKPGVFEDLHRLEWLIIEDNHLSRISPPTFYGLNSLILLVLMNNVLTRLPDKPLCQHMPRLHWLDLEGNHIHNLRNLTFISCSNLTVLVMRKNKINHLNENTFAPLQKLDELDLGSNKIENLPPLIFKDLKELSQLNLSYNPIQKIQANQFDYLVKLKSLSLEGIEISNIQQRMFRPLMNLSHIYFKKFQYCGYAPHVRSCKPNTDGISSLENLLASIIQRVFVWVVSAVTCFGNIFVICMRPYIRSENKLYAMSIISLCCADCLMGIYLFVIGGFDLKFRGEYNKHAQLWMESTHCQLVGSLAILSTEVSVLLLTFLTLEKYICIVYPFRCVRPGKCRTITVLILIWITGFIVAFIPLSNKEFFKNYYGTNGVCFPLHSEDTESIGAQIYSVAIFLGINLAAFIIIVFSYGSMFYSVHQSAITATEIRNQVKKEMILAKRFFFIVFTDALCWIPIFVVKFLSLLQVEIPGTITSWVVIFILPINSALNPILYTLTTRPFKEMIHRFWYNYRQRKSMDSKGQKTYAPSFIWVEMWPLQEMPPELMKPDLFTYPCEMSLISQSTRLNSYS
Assay: human RXFP1 (hRXFP1) HEK293 cAMP assay (HTRF)
Conditions: HEK293 cells stably expressing human RXFP1, 30 min at room temperature
pEC50: −log10 of the molar value.

# Compound, pEC50
records = [
    ("COc1ncc(Br)nc1C(=O)N[C@@H]1C2CCC(C2=C(C)C)[C@@H]1C(=O)Nc1ccc(F)c(C(F)(F)F)c1 (stereo partly drawn) [Example 5]", 5.96),
    ("COc1ncc(C2=NOC3CC(C(O)C(F)(F)F)CC23)cc1C(=O)N[C@H]1[C@@H](C(=O)Nc2ccc(F)c(C(F)(F)F)c2)[C@H]2CC[C@@H]1/C2=C\\C1CCCC1 (stereo partly drawn) [Example 173]", 9.22),
    ("COc1ncc(C2=NOC3CC(C(O)C(F)(F)F)CC23)cc1C(=O)N[C@H]1[C@@H](C(=O)Nc2ccc(F)c(C(F)(F)F)c2)[C@H]2CC[C@@H]1/C2=C\\C1CC1 (stereo partly drawn) [Example 130]", 8.92),
]

---

Some compounds, each annotated with its measured EC50.
Target: human RXFP1 (Homo sapiens, UniProt Q9HBX9)
Construct: expressed in transfected cells
Assay: human RXFP1 (hRXFP1) HEK293 cAMP assay (HTRF)
Assay type: cell-based
Conditions: HEK293 cells stably expressing human RXFP1, 30 min at room temperature

# Compound, Target desc, EC50 [nM]
measured = [
    ("COc1ncc(C2=NOC3COCC23)cc1C(=O)N[C@H]1[C@@H](C(=O)N[C@H](C)C2(C)CC2)[C@H]2CC[C@@H]1/C2=C\\C1CC1 (some centres unmarked)", "human RXFP1 (Homo sapiens, UniProt Q9HBX9)", 3),
    ("COc1ncc(C2=NOC3CC(C(C)O)CC23)cc1C(=O)N[C@H]1[C@@H](C(=O)Nc2ccc(F)c(C(F)(F)F)c2)[C@H]2CC[C@@H]1/C2=C\\C1CC1 (some centres unmarked) [Example 112]", "human RXFP1 (Homo sapiens, UniProt Q9HBX9)", 3.9),
    ("COc1cnc(C2=NOC3COCC23)cc1C(=O)N[C@H]1[C@@H](C(=O)Nc2ccc(F)c(C(F)(F)F)c2)[C@H]2CC[C@@H]1/C2=C\\C1CC1 (single isomer, unassigned) [Example 71]", "human RXFP1 (Homo sapiens, UniProt Q9HBX9)", 28),
    ("COc1ncc(C2=NOC3CC(C(O)C(F)(F)F)CC23)cc1C(=O)N[C@H]1[C@@H](C(=O)NC23CC(C#N)(C2)C3)[C@H]2CC[C@@H]1/C2=C\\C1CC1 (some centres unmarked)", "human RXFP1 (Homo sapiens, UniProt Q9HBX9)", 3.5),
    ("COc1ncc(-c2cc([C@H](OC(=O)NC3CC3)C(F)(F)F)ccc2F)cc1C(=O)N[C@H]1[C@@H](C(=O)Nc2ccc(F)c(C(F)(F)F)c2)[C@H]2CC[C@@H]1/C2=C\\C(C)C", "human RXFP1 (Homo sapiens, UniProt Q9HBX9)", 2.5),
    ("CCCc1cnc(OC)c(C(=O)N[C@@H]2C3CCC(/C3=C/C(F)(F)F)[C@@H]2C(=O)Nc2ccc(F)c(C(F)(F)F)c2)n1 (some centres unmarked)", "human RXFP1 (Homo sapiens, UniProt Q9HBX9)", 1300),
    ("COCCN1CCc2cc(OC)c(C(=O)N[C@H]3[C@@H](C(=O)Nc4ccc(F)c(C(F)(F)F)c4)[C@H]4CC[C@@H]3/C4=C\\C3CC3)cc2C1", "human RXFP1 (Homo sapiens, UniProt Q9HBX9)", 630),
    ("COc1ncc(C2=NOC3CC(C(C)O)CC23)cc1C(=O)N[C@H]1[C@@H](C(=O)Nc2ccc(F)c(C(F)(F)F)c2)[C@H]2CC[C@@H]1/C2=C\\CCC(F)(F)F (some centres unmarked)", "human RXFP1 (Homo sapiens, UniProt Q9HBX9)", 3.6),
    ("COc1cn(CCCO)nc1C(=O)N[C@H]1[C@@H](C(=O)Nc2ccc(F)c(C(F)(F)F)c2)[C@H]2CC[C@@H]1/C2=C\\C1CC1", "human RXFP1 (Homo sapiens, UniProt Q9HBX9)", 260),
    ("COc1ncc(C2=NOC3COCC23)cc1C(=O)N[C@H]1[C@@H](C(=O)N[C@H](C)C2(C)CC2)[C@H]2CC[C@@H]1/C2=C\\c1csc(C(F)F)n1 (some centres unmarked)", "human RXFP1 (Homo sapiens, UniProt Q9HBX9)", 3.4),
    ("COc1ncc(-c2cc(C(=O)O)ccc2F)nc1C(=O)N[C@H]1[C@@H](C(=O)Nc2ccc(F)c(C(F)(F)F)c2)[C@H]2CC[C@@H]1/C2=C\\c1cnoc1", "human RXFP1 (Homo sapiens, UniProt Q9HBX9)", 76),
]

---

Molecular target: human RXFP1 (Homo sapiens, UniProt Q9HBX9)
Assay: human RXFP1 (hRXFP1) HEK293 cAMP assay (HTRF)
Conditions: HEK293 cells stably expressing human RXFP1, 30 min at room temperature
The following ranges of EC50 define the classes used here: low = under 6 nM, mid = from 6 nM up to 100 nM, high = 100 nM and over

# Molecule, Category label
rows = [
    ("COc1cccc2cc(C(=O)N[C@@H]3C4CCC(/C4=C/C(F)(F)F)[C@@H]3C(=O)Nc3ccc(F)c(C(F)(F)F)c3)cnc12 (some centres unmarked)", "high"),
    ("COc1ncc(C2=NOC3CC(C(O)C4CC4)CC23)cc1C(=O)N[C@H]1[C@@H](C(=O)Nc2ccc(F)c(C(F)(F)F)c2)[C@H]2CC[C@@H]1/C2=C\\C1CC1 (some centres unmarked)", "low"),
    ("COc1ncc(C2=NOC3CC(C(O)C(F)(F)F)CC23)cc1C(=O)N[C@H]1[C@@H](C(=O)Nc2ccc(F)c(C(F)(F)F)c2)[C@H]2CC[C@@H]1/C2=C\\C1CCC1 (some centres unmarked)", "low"),
    ("COc1ncc(-c2cc(C(=O)O)ccc2F)cc1C(=O)N[C@@H]1C2CCC(C2=C(C)C)[C@@H]1C(=O)Nc1ccc(F)c(C(F)(F)F)c1 (some centres unmarked)", "mid"),
    ("COc1ncc(CCCO)cc1C(=O)N[C@@H]1C2CCC(/C2=C/C(F)(F)F)[C@@H]1C(=O)Nc1ccc(F)c(C(F)(F)F)c1 (some centres unmarked)", "high"),
    ("COc1ncc(-c2cc([C@H](OC(=O)Nc3ccccc3)C(F)(F)F)ccc2F)nc1C(=O)N[C@@H]1C2CCC(/C2=C/C(F)(F)F)[C@@H]1C(=O)Nc1ccc(F)c(C(F)(F)F)c1 (some centres unmarked)", "mid"),
    ("CC1Cc2cc(C3=NOC4CC(O)(C(F)(F)F)CC34)cc(C(=O)N[C@H]3[C@@H](C(=O)Nc4ccc(F)c(C(F)(F)F)c4)[C@H]4CC[C@@H]3/C4=C\\C3CCCC3)c2O1 (some centres unmarked)", "low"),
    ("O=C(O)c1ccc(F)c(-c2cnc(OCCO)c(C(=O)N[C@@H]3C4CCC(/C4=C/C(F)(F)F)[C@@H]3C(=O)Nc3ccc(F)c(C(F)(F)F)c3)n2)c1 (some centres unmarked)", "high"),
    ("COc1ncc(C2=NOC(C)(CO)C2)cc1C(=O)N[C@H]1[C@@H](C(=O)Nc2ccc(F)c(C(F)(F)F)c2)[C@H]2CC[C@@H]1/C2=C\\C1CC1 (some centres unmarked)", "low"),
    ("O=C(N[C@@H]1C2CCC(/C2=C/C(F)(F)F)[C@@H]1C(=O)Nc1ccc(F)c(C(F)(F)F)c1)c1cc(Br)ncc1OCCO (some centres unmarked)", "high"),
    ("COc1ncc(C(=O)OC(C)(C)C)cc1C(=O)N[C@H]1[C@@H](C(=O)Nc2ccc(F)c(C(F)(F)F)c2)[C@H]2CC[C@@H]1/C2=C\\C1CC1", "high"),
]
